Each recorded value in this set is attributed to patent US6632822B1.

Test system: Plasmodium falciparum chloroquine-resistant strain (FAF6, derived from ITG2 strain)
Protocol Details: Growth inhibition of chloroquine-resistant malaria parasite (parasite lactate dehydrogenase viability)
Assay type: cell-based
Run Parameters: chloroquine-resistant P. falciparum strain FAF6; 48 h incubation; parasite lactate dehydrogenase activity; ± s.d.; listed as IB (Calothrixin B); read-out: IC50
Quantity Kind: IC50 (nM)
Could you give me the number in nM? Just the number is fine.

So for O=C1c2[nH]c3ccccc3c2C(=O)c2cnc3ccccc3c21 , the logged IC50 turned out to be 83
